# assay_remarks: chemical genetic growth profiling, strain panel (AID 1159580);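 note: tested at 20 µM; growth read once vehicle control cultures reached saturation at 30 °C; 1 = growth at the plate median or of vehicle wells; lower values mean less growth of the strain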
# condition_details: S. cerevisiae deletion strains, growth OD, locus YJR066W, strain TOR1, active compounds read low
Among all 5,500 compounds or so, about 2,000 (36%) were called active. Roughly 18% stayed inconclusive and do not appear here. The list shows a part of the results.
test_readout: normalized growth
Respond using a number only.

Incoming: # return recorded normalized growth for entry "O=C(Oc1cccc2[nH]ccc12)c1ccc(C(F)(F)F)cc1"
Outgoing: 0.679

Incoming: # return recorded normalized growth for entry C=C[C@@](C)(O)CCC1C(=C)C[C@H](OC(C)=O)C2C(C)(C)CCCC12C (stereo not given in full)
Outgoing: 0.931

Incoming: # return recorded normalized growth for entry "COc1ccc2c(=O)c(-c3ccc(O)cc3)coc2c1"
Outgoing: 0.918

Incoming: # return recorded normalized growth for entry "O=c1c(-c2ccc(O)cc2)coc2cc(O)ccc12"
Outgoing: 0.989

Incoming: # return recorded normalized growth for entry "COC(=O)/C=C/C(C)=C/C=C/C(C)=C/C=C/C=C(C)/C=C/C=C(C)/C=C/C(=O)O"
Outgoing: 0.898
